B1: PCDHGA10 (parent)
chain: FHELQMQVTASDSGDPPLSSNVSL

variants of: B1; experiment: protein stability index of a GFP-peptide fusion (GPS, HEK-293T) (PSI 1-6); higher = more stable; conditions: c terminus: a fixed tail appended;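 further: lentivirally expressed fusions sorted by FACS into six bins by GFP to DsRed ratio, PSI derived from sequencing read proportions per bin multiplied by bin number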
protein stability index values, listed per item

[
  {
    "Mutant code": "S20T",
    "protein stability index": 2
  },
  {
    "Mutant code": "V8H",
    "protein stability index": 2.7
  },
  {
    "Mutant code": "L18M",
    "protein stability index": 2.31
  },
  {
    "Mutant code": "P16I",
    "protein stability index": 1.7
  },
  {
    "Mutant code": "L18Q",
    "protein stability index": 3
  },
  {
    "Mutant code": "L24S",
    "protein stability index": 3.29
  },
  {
    "Mutant code": "A10T",
    "protein stability index": 2.13
  },
  {
    "Mutant code": "M6R",
    "protein stability index": 3
  },
  {
    "Mutant code": "L24W",
    "protein stability index": 2.64
  },
  {
    "Mutant code": "S13E",
    "protein stability index": 2.69
  },
  {
    "Mutant code": "S19N",
    "protein stability index": 2.39
  },
  {
    "Mutant code": "S23I",
    "protein stability index": 1.89
  },
  {
    "Mutant code": "S20H",
    "protein stability index": 2.05
  },
  {
    "Mutant code": "N21S",
    "protein stability index": 2.1
  },
  {
    "Mutant code": "M6I",
    "protein stability index": 1.65
  },
  {
    "Mutant code": "A10H",
    "protein stability index": 2.51
  },
  {
    "Mutant code": "S11G",
    "protein stability index": 2.13
  },
  {
    "Mutant code": "L18E",
    "protein stability index": 2.53
  },
  {
    "Mutant code": "S20Y",
    "protein stability index": 1.83
  },
  {
    "Mutant code": "T9E",
    "protein stability index": 3.53
  },
  {
    "Mutant code": "Q7R",
    "protein stability index": 1.99
  },
  {
    "Mutant code": "S11A",
    "protein stability index": 2.22
  },
  {
    "Mutant code": "S11K",
    "protein stability index": 2.9
  },
  {
    "Mutant code": "G14V",
    "protein stability index": 2.59
  },
  {
    "Mutant code": "P17A",
    "protein stability index": 2.29
  },
  {
    "Mutant code": "Q5E",
    "protein stability index": 3.23
  },
  {
    "Mutant code": "S20W",
    "protein stability index": 3.19
  },
  {
    "Mutant code": "D12K",
    "protein stability index": 2.35
  },
  {
    "Mutant code": "L24E",
    "protein stability index": 3.07
  },
  {
    "Mutant code": "E3V",
    "protein stability index": 1.6
  },
  {
    "Mutant code": "H2V",
    "protein stability index": 1.92
  },
  {
    "Mutant code": "S23N",
    "protein stability index": 2.46
  },
  {
    "Mutant code": "V8R",
    "protein stability index": 3.2
  },
  {
    "Mutant code": "V8Q",
    "protein stability index": 3.51
  },
  {
    "Mutant code": "S13N",
    "protein stability index": 2.43
  },
  {
    "Mutant code": "D15R",
    "protein stability index": 2.18
  },
  {
    "Mutant code": "P17D",
    "protein stability index": 2.28
  },
  {
    "Mutant code": "L18D",
    "protein stability index": 3.51
  },
  {
    "Mutant code": "E3F",
    "protein stability index": 2.39
  },
  {
    "Mutant code": "D15E",
    "protein stability index": 1.98
  },
  {
    "Mutant code": "P17E",
    "protein stability index": 2.28
  },
  {
    "Mutant code": "V22T",
    "protein stability index": 2.83
  },
  {
    "Mutant code": "D12G",
    "protein stability index": 2.14
  },
  {
    "Mutant code": "P17Y",
    "protein stability index": 1.52
  },
  {
    "Mutant code": "F1Y",
    "protein stability index": 2.78
  },
  {
    "Mutant code": "G14N",
    "protein stability index": 2.27
  },
  {
    "Mutant code": "P17T",
    "protein stability index": 1.93
  },
  {
    "Mutant code": "L18K",
    "protein stability index": 2.31
  },
  {
    "Mutant code": "A10M",
    "protein stability index": 1.49
  },
  {
    "Mutant code": "Q5N",
    "protein stability index": 2.86
  },
  {
    "Mutant code": "S23M",
    "protein stability index": 2.15
  },
  {
    "Mutant code": "L24G",
    "protein stability index": 2.52
  },
  {
    "Mutant code": "Q7W",
    "protein stability index": 2.57
  },
  {
    "Mutant code": "D12A",
    "protein stability index": 1.46
  },
  {
    "Mutant code": "G14A",
    "protein stability index": 2.33
  },
  {
    "Mutant code": "P17N",
    "protein stability index": 2.12
  },
  {
    "Mutant code": "S23Q",
    "protein stability index": 2.1
  },
  {
    "Mutant code": "S11C",
    "protein stability index": 2.12
  },
  {
    "Mutant code": "L4P",
    "protein stability index": 2.57
  },
  {
    "Mutant code": "M6T",
    "protein stability index": 3.32
  },
  {
    "Mutant code": "Q7M",
    "protein stability index": 1.7
  },
  {
    "Mutant code": "M6W",
    "protein stability index": 2.02
  },
  {
    "Mutant code": "Q7H",
    "protein stability index": 2.09
  },
  {
    "Mutant code": "S20A",
    "protein stability index": 1.82
  },
  {
    "Mutant code": "H2R",
    "protein stability index": 3.85
  },
  {
    "Mutant code": "L4Q",
    "protein stability index": 3.36
  },
  {
    "Mutant code": "V8F",
    "protein stability index": 1.95
  },
  {
    "Mutant code": "L4C",
    "protein stability index": 2.73
  },
  {
    "Mutant code": "S23D",
    "protein stability index": 3.16
  },
  {
    "Mutant code": "M6A",
    "protein stability index": 2.84
  },
  {
    "Mutant code": "Q7C",
    "protein stability index": 1.6
  }
]

All figures here come from the supplement of paper PMC10567573.
